Every entry's value here was drawn from patent US4731109A.

- Test system: seedling johnsongrass
- Assay Remarks: Greenhouse pre-emergence GR15/GR85 selectivity test
- Format: in vivo
- Measurement Setup: in lima beans, Table XVI
- Source text: A good grade of top soil is placed in aluminum pans and compacted to a depth of three-eighths to one-half inch from the top of the pan. On the top of the soil is placed a number of seeds or vegetative propagules of various plant species. The soil required to level fill the pans after seeding or adding vegetative propagules is weighed into a pan. […]
In this section, each of the compounds is paired with its reported selectivity factor (GR15/GR85).
Readout Name: selectivity factor (GR15/GR85)

- CCCOCN(C(=O)CCl)c1c(C)cccc1C(F)(F)F: 2.1
- CCOCN(C(=O)CCl)c1c(CC)cccc1C(F)(F)F: 3

* * *

- Test system: Quackgrass
- Assay Remarks: Greenhouse pre-emergence GR15/GR85 selectivity test
- Type: in vivo
- Measurement Setup: quackgrass in soybeans, Table V
- Source text: A good grade of top soil is placed in aluminum pans and compacted to a depth of three-eighths to one-half inch from the top of the pan. On the top of the soil is placed a number of seeds or vegetative propagules of various plant species. The soil required to level fill the pans after seeding or adding vegetative propagules is weighed into a pan. […]
// selectivity factor (GR15/GR85) lookup, one value per entry
Readout Name: selectivity factor (GR15/GR85)

- CCOCCN(C(=O)CCl)c1c(C)cccc1C(F)(F)F [E, reference compound]: 3
- CCOCN(C(=O)CCl)c1c(C)cccc1C(F)(F)F [Example 1]: 35

* * *

- Test system: shattercane
- Assay Remarks: Greenhouse pre-emergence GR15/GR85 selectivity test
- Assay type: in vivo
- Measurement Setup: in lima beans, Table XVI
Readout Name: selectivity factor (GR15/GR85)

* CCCOCN(C(=O)CCl)c1c(C)cccc1C(F)(F)F | 4.5
* CCOCN(C(=O)CCl)c1c(CC)cccc1C(F)(F)F | 3.6

* * *

- Tested on: corn
- Assay Remarks: Greenhouse pre-emergence GR15/GR85 selectivity test
- Format: in vivo
- Measurement Setup: Table IV, Replicate #1
Measured GR15 values are reported for all entries that follow.
Readout Name: GR15 (Kg/Ha)

• CC(C)OCN(C(=O)CCl)c1ccccc1C(F)(F)F = 3.1
• CCOCCN(C(=O)CCl)c1ccccc1C(F)(F)F [B, reference compound] = 1.2
• CCCOCN(C(=O)CCl)c1c(C)cccc1C(F)(F)F = 0.78
• CCOCN(C(=O)CCl)c1c(C)cccc1C(F)(F)F = 0.76
• Cc1cccc(C(F)(F)F)c1N(COC(C)C)C(=O)CCl = 1.7

* * *

- Test system: Barnyardgrass
- Assay Remarks: Resistance to leaching and resulting herbicidal efficacy
- Type: in vivo
- Measurement Setup: Ray silt loam, 0.56 Kg/Ha, rain 1.27 cm
Readout Name: Fresh Weight (Grams)

- CCOCN(C(=O)CCl)c1c(C)cccc1C(F)(F)F: 0
- Cc1cccc(C(F)(F)F)c1N(COCC(C)C)C(=O)CCl: 0.02
- CCCOCN(C(=O)CCl)c1c(C)cccc1C(F)(F)F: 0
- Cc1cccc(C(F)(F)F)c1N(COC(C)C)C(=O)CCl: 0

* * *

- Tested on: Barnyardgrass
- Assay Remarks: Resistance to leaching and resulting herbicidal efficacy
- Assay type: in vivo
- Measurement Setup: Echinochloa crus-galli, Drummer silt clay, 0.14 Kg/Ha, rain 1.27 cm; read-out: Percent Inhibition
Listing of recorded inhibition at 140 g/ha by entry.
Readout Name: inhibition at 140 g/ha (%)

* CCOCN(C(=O)CCl)c1c(C)cccc1C(F)(F)F | 97
* Cc1cccc(C(F)(F)F)c1N(COC(C)C)C(=O)CCl | 96
* CCCOCN(C(=O)CCl)c1c(CC)cccc1C(F)(F)F | 85
* Cc1cccc(C(F)(F)F)c1N(COCC(C)C)C(=O)CCl | 26
* CCCOCN(C(=O)CCl)c1c(C)cccc1C(F)(F)F | 99

* * *

- Test system: Yellow Nutsedge
- Assay Remarks: Greenhouse pre-emergence GR15/GR85 selectivity test
- Assay type: in vivo
- Measurement Setup: yellow nutsedge in soybeans, Table IV, Replicate #1
Listing of recorded selectivity factor (GR15/GR85) by entry.
Readout Name: selectivity factor (GR15/GR85)

• Cc1cccc(C(F)(F)F)c1N(COC(C)C)C(=O)CCl = 4
• CCOCCN(C(=O)CCl)c1ccccc1C(F)(F)F [B, reference compound] = 4
• CC(C)OCN(C(=O)CCl)c1ccccc1C(F)(F)F = 10
• CCOCN(C(=O)CCl)c1c(C)cccc1C(F)(F)F = 15
• CCCOCN(C(=O)CCl)c1c(C)cccc1C(F)(F)F = 10

* * *

- Tested on: common purslane
- Assay Remarks: Greenhouse pre-emergence GR15/GR85 selectivity test
- Type: in vivo
- Measurement Setup: Table XV
Readout Name: GR85 Rate (Kg/Ha)

* CCCOCN(C(=O)CCl)c1c(C)cccc1C(F)(F)F | 0.70
* CCOCN(C(=O)CCl)c1c(CC)cccc1C(F)(F)F | 0.78

* * *

- System: Barnyardgrass
- Assay Remarks: Resistance to leaching and resulting herbicidal efficacy
- Type: in vivo
- Measurement Setup: Echinochloa crus-galli, Drummer silt clay, 0.56 Kg/Ha, rain 1.27 cm; read-out: Percent Inhibition
Readout Name: inhibition at 560 g/ha

- Cc1cccc(C(F)(F)F)c1N(COC(C)C)C(=O)CCl [Example 4]: 100%
- CCCOCN(C(=O)CCl)c1c(CC)cccc1C(F)(F)F [Example 10]: 98%
- CCOCN(C(=O)CCl)c1c(C)cccc1C(F)(F)F [Example 1]: 100%
- CCCOCN(C(=O)CCl)c1c(C)cccc1C(F)(F)F [Example 3]: 100%
- Cc1cccc(C(F)(F)F)c1N(COCC(C)C)C(=O)CCl [Example 5]: 100%

* * *

- Test system: alexandergrass
- Assay Remarks: Greenhouse pre-emergence GR15/GR85 selectivity test
- Type: in vivo
- Measurement Setup: in rape, Table XV
The following compounds are shown together with reported selectivity factor (GR15/GR85) values.
Readout Name: selectivity factor (GR15/GR85)

• CCCOCN(C(=O)CCl)c1c(C)cccc1C(F)(F)F [Example 3] = 6.3
• CCOCN(C(=O)CCl)c1c(CC)cccc1C(F)(F)F [Example 9] = 5.2

* * *

- Test system: Barnyardgrass
- Assay Remarks: Resistance to leaching and resulting herbicidal efficacy
- Type: in vivo
- Measurement Setup: Ray silt loam, 0.14 Kg/Ha, rain 5.08 cm
Examples of compounds with documented Fresh Weight follow.
Readout Name: Fresh Weight (Grams)

- CCOCN(C(=O)CCl)c1c(C)cccc1C(F)(F)F: 1.74
- Cc1cccc(C(F)(F)F)c1N(COCC(C)C)C(=O)CCl: 1.72
- Cc1cccc(C(F)(F)F)c1N(COC(C)C)C(=O)CCl: 2.77
- CCCOCN(C(=O)CCl)c1c(C)cccc1C(F)(F)F: 1.53

* * *

Catalogue of selectivity factor (GR15/GR85) values
- Test system: red rice
- Assay Remarks: Greenhouse pre-emergence GR15/GR85 selectivity test
- Format: in vivo
- Measurement Setup: in lima beans, Table XVI
Readout Name: selectivity factor (GR15/GR85)

- CCOCN(C(=O)CCl)c1c(CC)cccc1C(F)(F)F: 1.8
- CCCOCN(C(=O)CCl)c1c(C)cccc1C(F)(F)F: 1.3

* * *

- Tested on: Barnyardgrass
- Assay Remarks: Resistance to leaching and resulting herbicidal efficacy
- Format: in vivo
- Measurement Setup: Echinochloa crus-galli, Ray silt loam, 0.14 Kg/Ha, rain 5.08 cm; read-out: Percent Inhibition
Some compounds, each annotated with its measured inhibition at 140 g/ha.
Readout Name: inhibition at 140 g/ha

- CCCOCN(C(=O)CCl)c1c(CC)cccc1C(F)(F)F [Example 10]: 98%
- CCCOCN(C(=O)CCl)c1c(C)cccc1C(F)(F)F [Example 3]: 63%
- Cc1cccc(C(F)(F)F)c1N(COCC(C)C)C(=O)CCl [Example 5]: 58%
- Cc1cccc(C(F)(F)F)c1N(COC(C)C)C(=O)CCl [Example 4]: 38%
- CCOCN(C(=O)CCl)c1c(C)cccc1C(F)(F)F [Example 1]: 58%

* * *

- System: Barnyardgrass
- Assay Remarks: Resistance to leaching and resulting herbicidal efficacy
- Format: in vivo
- Measurement Setup: Echinochloa crus-galli, Ray silt loam, 0.56 Kg/Ha, rain 1.27 cm; read-out: Percent Inhibition
Readout Name: inhibition at 560 g/ha (%)

- CCOCN(C(=O)CCl)c1c(C)cccc1C(F)(F)F: 100
- Cc1cccc(C(F)(F)F)c1N(COCC(C)C)C(=O)CCl: 99
- Cc1cccc(C(F)(F)F)c1N(COC(C)C)C(=O)CCl: 100
- CCCOCN(C(=O)CCl)c1c(C)cccc1C(F)(F)F: 100
- CCCOCN(C(=O)CCl)c1c(CC)cccc1C(F)(F)F: 100

* * *

Each record here notes measured selectivity factor (GR15/GR85).
- Tested on: Quackgrass
- Assay Remarks: Greenhouse pre-emergence GR15/GR85 selectivity test
- Format: in vivo
- Measurement Setup: quackgrass in soybeans, Table IV, Replicate #1
Readout Name: selectivity factor (GR15/GR85)

- CCOCN(C(=O)CCl)c1c(C)cccc1C(F)(F)F: 17
- CCCOCN(C(=O)CCl)c1c(C)cccc1C(F)(F)F: 9
- Cc1cccc(C(F)(F)F)c1N(COC(C)C)C(=O)CCl: 3
- CCOCCN(C(=O)CCl)c1ccccc1C(F)(F)F [B, reference compound]: 3.5
- CC(C)OCN(C(=O)CCl)c1ccccc1C(F)(F)F: 6.5
